System: 889142-216-R-J1-PDC complex spheroid viability
Test: Anticancer human tumor 889142-216-R-J1-PDC patient-derived bladder carcinoma cell line growth inhibition [POLQ]
Settings: curve of first compound; second compound 0.1 µM
Description: Multicellular complex tumor spheroid response to Polymerase (POL) inhibitors (novobiocin, ART-558, RP6685) in combination with a variety of drugs and investigational agents in selected tumor cell lines The POL inhibitors (novobiocin, ART-558, and RP6685) were evaluated both individually and in combination with standard of care and investigational anticancer small molecules within a complex spheroid model of solid tumors. . […]
result_type: IC50 (µM)

# compound, result_type, unit_abbreviation, censoring_operator, value_measured
data = [
    ("COc1cc2cc(C(=O)CCC(=O)O)sc2cc1OC + COC1C(OC(N)=O)C(O)C(Oc2ccc3c(O)c(NC(=O)c4ccc(O)c(CC=C(C)C)c4)c(=O)oc3c2C)OC1(C)C", "IC50", "µM", ">", 10),
    ("O=C(c1cc(Cc2n[nH]c(=O)c3ccccc23)ccc1F)N1CCN(C(=O)C2CC2)CC1 + COC1C(OC(N)=O)C(O)C(Oc2ccc3c(O)c(NC(=O)c4ccc(O)c(CC=C(C)C)c4)c(=O)oc3c2C)OC1(C)C", "IC50", "µM", ">", 10),
    ("Nc1ccn(C2OC(CO)C(O)C2(F)F)c(=O)n1 (stereo unspecified) + Cc1cccc(N(C)C(=O)C2C(O)CCN2c2nc(C)cc(C(F)(F)F)c2C#N)c1", "IC50", "µM", "=", 0.138),
    ("Nc1ccn(C2OC(CO)C(O)C2(F)F)c(=O)n1 (stereo unspecified) + Nc1ccc(C#CCN(C(=O)Cc2ncc(C(F)(F)F)cc2C(F)(F)F)c2ccc(F)cc2)nn1", "IC50", "µM", "=", 0.386),
    ("COc1cccc(OCCCN)c1-c1cc(Nc2cnc(C#N)cn2)n[nH]1 + Cc1cccc(N(C)C(=O)C2C(O)CCN2c2nc(C)cc(C(F)(F)F)c2C#N)c1", "IC50", "µM", "=", 0.083),
    ("CCc1c2c(nc3ccc(O)cc13)-c1cc3c(c(=O)n1C2)COC(=O)[C@]3(O)CC + Cc1cccc(N(C)C(=O)C2C(O)CCN2c2nc(C)cc(C(F)(F)F)c2C#N)c1", "IC50", "µM", "=", 0.017),
]

----------
test system: 889142-216-R-J1-PDC complex spheroid viability; assay: Anticancer human tumor 889142-216-R-J1-PDC cell line growth inhibition [POLQ]; settings: curve of first compound; second compound 0.316 µM;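 note: spheroids exposed to compounds for seven days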
Range-based classes on measured IC50: 1 = under 0.1 µM, 2 = from 0.1 µM up to 0.3 µM, 3 = 0.3 µM and over

# compound, test_system, class_label
measured = [
    ("CC1COCCN1c1cc(C2(O)CC3CCC(C2)O3)c2cnn(-c3ccn[nH]3)c2n1 (stereo unspecified) + COC1C(OC(N)=O)C(O)C(Oc2ccc3c(O)c(NC(=O)c4ccc(O)c(CC=C(C)C)c4)c(=O)oc3c2C)OC1(C)C", "889142-216-R-J1-PDC complex spheroid viability", 2),
    ("COc1cccc(OCCCN)c1-c1cc(Nc2cnc(C#N)cn2)n[nH]1 + COC1C(OC(N)=O)C(O)C(Oc2ccc3c(O)c(NC(=O)c4ccc(O)c(CC=C(C)C)c4)c(=O)oc3c2C)OC1(C)C", "889142-216-R-J1-PDC complex spheroid viability", 1),
    ("CC1COCCN1c1cc(-c2ccnn2C)c2ccnc(-c3ccn[nH]3)c2n1 (stereo unspecified) + COC1C(OC(N)=O)C(O)C(Oc2ccc3c(O)c(NC(=O)c4ccc(O)c(CC=C(C)C)c4)c(=O)oc3c2C)OC1(C)C", "889142-216-R-J1-PDC complex spheroid viability", 2),
    ("C=CC(=O)N1CCN(c2nc(=O)n(-c3c(C)ccnc3C(C)C)c3nc(-c4c(O)cccc4F)c(F)cc23)C(C)C1 (stereo unspecified) + COC1C(OC(N)=O)C(O)C(Oc2ccc3c(O)c(NC(=O)c4ccc(O)c(CC=C(C)C)c4)c(=O)oc3c2C)OC1(C)C", "889142-216-R-J1-PDC complex spheroid viability", 3),
    ("CC1COCCN1c1cc(C2(S(C)(=N)=O)CC2)nc(-c2ccnc3[nH]ccc23)n1 (stereo unspecified) + Cc1cccc(N(C)C(=O)C2C(O)CCN2c2nc(C)cc(C(F)(F)F)c2C#N)c1", "889142-216-R-J1-PDC complex spheroid viability", 3),
    ("COc1cccc2c1C(=O)c1c(O)c3c(c(O)c1C2=O)CC(O)(C(=O)CO)CC3OC1CC(N)C(O)C(C)O1 (stereo unspecified) + COC1C(OC(N)=O)C(O)C(Oc2ccc3c(O)c(NC(=O)c4ccc(O)c(CC=C(C)C)c4)c(=O)oc3c2C)OC1(C)C", "889142-216-R-J1-PDC complex spheroid viability", 2),
    ("COc1cccc2c1C(=O)c1c(O)c3c(c(O)c1C2=O)CC(O)(C(=O)CO)CC3OC1CC(N)C(O)C(C)O1 (stereo unspecified) + Nc1ccc(C#CCN(C(=O)Cc2ncc(C(F)(F)F)cc2C(F)(F)F)c2ccc(F)cc2)nn1", "889142-216-R-J1-PDC complex spheroid viability", 2),
    ("C=CCn1c(=O)c2cnc(Nc3ccc(N4CCN(C)CC4)cc3)nc2n1-c1cccc(C(C)(C)O)n1 + COC1C(OC(N)=O)C(O)C(Oc2ccc3c(O)c(NC(=O)c4ccc(O)c(CC=C(C)C)c4)c(=O)oc3c2C)OC1(C)C", "889142-216-R-J1-PDC complex spheroid viability", 3),
    ("Nc1ccn(C2OC(CO)C(O)C2(F)F)c(=O)n1 (stereo unspecified) + Cc1cccc(N(C)C(=O)C2C(O)CCN2c2nc(C)cc(C(F)(F)F)c2C#N)c1", "889142-216-R-J1-PDC complex spheroid viability", 2),
    ("COc1cc2cc(C(=O)CCC(=O)O)sc2cc1OC + Cc1cccc(N(C)C(=O)C2C(O)CCN2c2nc(C)cc(C(F)(F)F)c2C#N)c1", "889142-216-R-J1-PDC complex spheroid viability", 3),
    ("COc1ccc([C@@H](O)c2cc(-c3ncnc4cc(N5CCOCC5)ccc34)c(F)cc2Cl)nn1 + Nc1ccc(C#CCN(C(=O)Cc2ncc(C(F)(F)F)cc2C(F)(F)F)c2ccc(F)cc2)nn1", "889142-216-R-J1-PDC complex spheroid viability", 3),
    ("C=CCn1c(=O)c2cnc(Nc3ccc(N4CCN(C)CC4)cc3)nc2n1-c1cccc(C(C)(C)O)n1 + Cc1cccc(N(C)C(=O)C2C(O)CCN2c2nc(C)cc(C(F)(F)F)c2C#N)c1", "889142-216-R-J1-PDC complex spheroid viability", 3),
    ("C=CC(=O)N1CCN(c2nc(=O)n(-c3c(C)ccnc3C(C)C)c3nc(-c4c(O)cccc4F)c(F)cc23)C(C)C1 (stereo unspecified) + Nc1ccc(C#CCN(C(=O)Cc2ncc(C(F)(F)F)cc2C(F)(F)F)c2ccc(F)cc2)nn1", "889142-216-R-J1-PDC complex spheroid viability", 3),
    ("CNCc1ccc(-c2[nH]c3cc(F)cc4c3c2CCNC4=O)cc1 + Cc1cccc(N(C)C(=O)C2C(O)CCN2c2nc(C)cc(C(F)(F)F)c2C#N)c1", "889142-216-R-J1-PDC complex spheroid viability", 3),
    ("CCc1c2c(nc3ccc(O)cc13)-c1cc3c(c(=O)n1C2)COC(=O)[C@]3(O)CC + Nc1ccc(C#CCN(C(=O)Cc2ncc(C(F)(F)F)cc2C(F)(F)F)c2ccc(F)cc2)nn1", "889142-216-R-J1-PDC complex spheroid viability", 1),
    ("Nc1ccn(C2OC(CO)C(O)C2(F)F)c(=O)n1 (stereo unspecified) + Nc1ccc(C#CCN(C(=O)Cc2ncc(C(F)(F)F)cc2C(F)(F)F)c2ccc(F)cc2)nn1", "889142-216-R-J1-PDC complex spheroid viability", 3),
    ("COc1cccc(OCCCN)c1-c1cc(Nc2cnc(C#N)cn2)n[nH]1 + Cc1cccc(N(C)C(=O)C2C(O)CCN2c2nc(C)cc(C(F)(F)F)c2C#N)c1", "889142-216-R-J1-PDC complex spheroid viability", 1),
    ("CCc1cc2c(N3CCc4c(cc(Cn5ccnc5)cc4-c4cn(C)nc4C(F)(F)F)C3=O)cc(C)nc2c(OC)n1 + Nc1ccc(C#CCN(C(=O)Cc2ncc(C(F)(F)F)cc2C(F)(F)F)c2ccc(F)cc2)nn1", "889142-216-R-J1-PDC complex spheroid viability", 3),
]
